Listing of entries alongside the reported IC50.
Molecular target: Syk (Homo sapiens)
Construct: purchased Carna Biosciences
Assay: Syk HTRF assay
Assay type: biochemical
Conditions: activity levels A-D, read-out: Activity Level (IC50 in the Syk HTRF assay)

Check out these entries, answers already filled in.
                  compound_structure_string  endpoint_result
0  FC(F)(F)c1ccc(Nc2nc3cccc(O[C@H]4CCCNC4)n3n2)cc1       1 to 10 µM
1  Oc1cccc(Nc2nc3cccc(N[C@H]4CC[C@@H](O)CC4)n3n2)n1       1 to 10 µM
2  NC(=O)c1cc(Nc2nc3cccc(N[C@H]4CC[C@@H](O)CC4)n3n2)ccn1       1 to 10 µM
3  COc1ccccc1Nc1nc2cccc(N[C@H]3CC[C@@H](O)CC3)n2n1       1 to 10 µM
4  NC(=O)[C@H]1CC[C@@H](Oc2cccc3nc(Nc4ccc(C(F)(F)F)cc4)nn23)CC1      0.5 to 1 µM

Qu. Please state recorded IC50 (tested on Syk (Homo sapiens)) of Cc1cccc(Nc2nc3cccc(N[C@H]4CC[C@@H](O)CC4)n3n2)c1
Ans. 5e-06 to 0.25 µM

###

Biological target: Syk (Homo sapiens)
Construct: purchased Carna Biosciences
Test: Syk HTRF assay
Type: biochemical
Settings: activity levels A-D, read-out: Activity Level (IC50 in the Syk HTRF assay)
Reported property: IC50

The examples below pair each entry with its known result.
>>> print(df.to_string())
                                   compound     measured_target  endpoint_result
0  Cc1n[nH]c2cc(Nc3nc4cccc(N[C@H]5CC[C@@H](O)CC5)n4n3)ccc12 [Example 351]  Syk (Homo sapiens)  0.005 to 250 nM
1  O[C@H]1CCC[C@H](Nc2cccc3nc(Nc4ccc(C(F)(F)F)cc4)nn23)C1 (racemic) [Example 373]  Syk (Homo sapiens)   500 to 1000 nM
2  O[C@@H]1CCCN(c2cccc3nc(Nc4ccc(C(F)(F)F)cc4)nn23)C1 [Example 309]  Syk (Homo sapiens)   500 to 1000 nM

Qu. Which IC50 value is on record for CNC(=O)c1ccc(Nc2nc3cccc(N4CCCCC4)n3n2)cc1 [Example 247] ?
Ans. 500 to 1000 nM

Qu. Query CC(c1cccc2nc(Nc3ccc(C(F)(F)F)cc3)nn12)N1CCNC(=O)C1 (centres unmarked) [Example 263] next
Ans. 0.005 to 250 nM

###

Item-by-item account of pIC50
Target: Syk (Homo sapiens)
Construct: purchased Carna Biosciences
Experiment: Syk HTRF assay
Type: biochemical
Settings: read-out: Activity Level (Syk HTRF assay IC50)
pIC50: −log10 of the molar value.

>>> df
                                   compound  reported_property  endpoint_result
0  c1cc(CC2CCOCC2)n2nc(Nc3cnc4cn[nH]c4c3)nc2c1 [compound 106]              pIC50     6.00 to 6.30

Qu. Which measured pIC50 value corresponds to O=C(O)c1ccc(Nc2nc3cccc(-c4cccc(O)c4)n3n2)cc1 [compound 25] ?
Ans. 6.60 to 11.30

Qu. What do you get for NC(=O)c1cccc(Nc2nc3cccc(-c4ccccc4)n3n2)c1 [compound 67] ?
Ans. 6.00 to 6.30
